Molecular target: S1-Fc (SARS-CoV-2, UniProt P0DTC2 16-685)
Experiment: phage ELISA
value_kind: specificity ELISA, fold over background (fold over background)
Express it in fold over background; write the number only.

# binder, measurement_units, endpoint_value
rows = [
    ("SARS-CoV-2 variant 1-5 (antibody, V domains shown) VH: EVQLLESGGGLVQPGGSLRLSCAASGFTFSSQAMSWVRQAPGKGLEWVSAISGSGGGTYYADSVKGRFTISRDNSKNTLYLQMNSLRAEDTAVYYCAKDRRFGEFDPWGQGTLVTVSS VL: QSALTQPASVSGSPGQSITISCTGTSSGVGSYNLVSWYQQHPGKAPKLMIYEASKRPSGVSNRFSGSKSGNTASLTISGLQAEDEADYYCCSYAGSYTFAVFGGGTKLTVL", "fold over background", 1.2),
    ("SARS-CoV-2 variant 1-27 (antibody, V domains shown) VH: EVQLLESGGGLVQPGGSLRLSCAASGFTFSSYAMTWVRQAPGKGLEWVSAISGSGGGTYYADSVKGRFTISRDNSKNTLYLQMNSLRAEDTAVYYCASSSSWQFDYWGQGTLVTVSS VL: QSALTQPASVSGSPGQSITISCTGTSSYVGHYNLVSWYQQHPGKAPKLMIYEGSRRPSGVSNRFSGSKSGNTASLTISGLQAEDEADYYCCSYAGSYTHYVFGGGTKLTVL", "fold over background", 1.3),
    ("SARS-CoV-2 variant 1-23 (antibody, V domains shown) VH: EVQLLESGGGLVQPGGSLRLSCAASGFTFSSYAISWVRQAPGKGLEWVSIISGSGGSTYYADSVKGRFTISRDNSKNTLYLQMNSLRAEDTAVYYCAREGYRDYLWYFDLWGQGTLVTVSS VL: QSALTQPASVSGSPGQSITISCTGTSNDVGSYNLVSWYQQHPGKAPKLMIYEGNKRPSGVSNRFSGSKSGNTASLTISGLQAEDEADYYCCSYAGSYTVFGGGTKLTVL", "fold over background", 1.6),
    ("SARS-CoV-2 variant 1-33 (antibody, V domains shown) VH: EVQLLESGGGLVQPGGSLRLSCAASGFTFSSYAMIWVRQAPGKGLEWVSAISGSGGSTFYADSVKGRFTISRDNSKNTLYLQMNSLRAEDTAVYYCTRPPYGDYGDYWGQGTLVTVSS VL: QSALTQPASVSGSPGQSITISCTGTSSDVGSYNLLSWYQQHPGKAPKLMIYEASKRPSGVSNRFSGSKSGNTASLTISGLQAEDEADYYCCSYAGSRTPVVFGGGTKLTVL", "fold over background", 3),
]

Challenge: Entry SARS-CoV-2 variant 1-32 (antibody, V domains shown) VH: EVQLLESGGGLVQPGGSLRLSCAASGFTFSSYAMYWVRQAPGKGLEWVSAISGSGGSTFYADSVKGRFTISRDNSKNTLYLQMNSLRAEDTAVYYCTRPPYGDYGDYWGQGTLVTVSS VL: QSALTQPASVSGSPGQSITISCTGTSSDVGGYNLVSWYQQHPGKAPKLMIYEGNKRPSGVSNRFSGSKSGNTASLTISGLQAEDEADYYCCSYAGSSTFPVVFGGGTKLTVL : reported specificity ELISA, fold over background = ?
Response given: 4

src = patent US20210395344A1
